Test: Plasma concentration in NMRI mouse at 3 mg/kg, ip measured after 1 hr by HPLC-MS/MS analysis
Format: ADME, organism-based
Collected concentration at 1 h values appear next to each entry.
Number first, unit second.

> print(dat)
                                 smiles.str  result
1  Cc1ccc(OC2CCN(C(=O)C(=O)Nc3ccc4c(ccn4C)c3)CC2)cc1  170 nM
2  Cc1ccc(CN2CCN(C(=O)C(=O)Nc3ccc4c(ccn4C)c3)CC2)cc1   37 nM
3  Cc1ccc(Oc2ccc(C(=O)C(=O)Nc3ccc4c(ccn4C)c3)cn2)cc1  417 nM

# context switch: different compound, same concentration at 1 h
Recorded concentration at 1 h (compound O=C(NCc1ccc2[nH]ccc2c1)N1CC(COc2ccc(C(F)(F)F)cc2)C1 ): 2270 nM
